Target: UniProt:P21554
Property Measured: Ki (nM)

> print(dat)
                            chemical.smiles  property.measured  observed.measurement
1  CCOC(=O)c1c(C)cc2nc(COC(=O)NCCO)n(-c3ccccc3S(=O)(=O)NC)c(=O)c2c1C                 Ki                    34

====

Target: hCB1 receptor (Homo sapiens)
Sequence (P21554 whole entry): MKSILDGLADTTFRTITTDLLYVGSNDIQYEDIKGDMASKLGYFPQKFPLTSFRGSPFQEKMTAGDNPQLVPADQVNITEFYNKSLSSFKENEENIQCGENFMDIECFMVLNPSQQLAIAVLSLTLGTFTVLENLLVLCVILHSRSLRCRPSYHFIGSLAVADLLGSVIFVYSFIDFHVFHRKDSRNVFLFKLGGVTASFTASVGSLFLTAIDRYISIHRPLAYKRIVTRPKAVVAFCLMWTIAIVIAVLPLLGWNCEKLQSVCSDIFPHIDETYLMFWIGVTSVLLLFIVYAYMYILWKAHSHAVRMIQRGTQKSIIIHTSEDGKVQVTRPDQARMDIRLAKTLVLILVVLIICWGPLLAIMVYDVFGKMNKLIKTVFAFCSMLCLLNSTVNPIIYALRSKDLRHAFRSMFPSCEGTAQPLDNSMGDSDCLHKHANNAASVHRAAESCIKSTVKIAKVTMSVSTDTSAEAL
Assay Procedure: Test IV: CB1 functional assay ([35S]GTPγS binding)
Conditions Used: hCB1 receptor membrane (HEK293 cells)
Property Measured: EC50

> print(dat)
                            chemical.smiles  observed.measurement
1  CCOC(=O)c1c(C)cc2nc(COC(=O)NCCO)n(-c3ccccc3S(=O)(=O)NC)c(=O)c2c1C                132 nM

====

Target: UniProtKB P34972
Sequence (P34972 whole entry): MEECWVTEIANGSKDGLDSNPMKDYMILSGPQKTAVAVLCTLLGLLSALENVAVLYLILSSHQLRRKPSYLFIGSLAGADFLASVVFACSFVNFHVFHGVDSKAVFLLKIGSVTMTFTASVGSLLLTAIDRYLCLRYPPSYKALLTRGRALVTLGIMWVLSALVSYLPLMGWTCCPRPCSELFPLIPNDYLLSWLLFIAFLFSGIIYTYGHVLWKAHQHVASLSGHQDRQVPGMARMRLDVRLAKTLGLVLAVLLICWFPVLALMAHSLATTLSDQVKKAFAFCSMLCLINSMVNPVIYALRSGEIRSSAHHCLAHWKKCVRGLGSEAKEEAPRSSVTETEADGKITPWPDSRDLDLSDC
pKi: −log10 of the molar value.
Property Measured: pKi

> print(dat)
                            chemical.smiles            target  property.measured  observed.measurement
1  CCOC(=O)c1c(C)cc2nc(COC(=O)NCCO)n(-c3ccccc3S(=O)(=O)NC)c(=O)c2c1C  UniProtKB P34972                pKi                  7.96
